Entries and their measured IC50 follow.
biological target: HLA-DRB1*04:01-*04:13 (Homo sapiens, UniProt P01903+P01911, A100K/A169T/F76Y/I96L/K127E/L162R/M171V/N62H/P40V/Q125Y/R42H/S133A/S149N/S66Y/V115G/V209L/W38E); test: In vitro competitive peptide binding to purified MHC class II
Where no end group is shown, it is not given here.
recorded_endpoint: IC50 (nM)

>  <macromolecule_sequence>
DQERSLMFMQWGQLL [MPO245–259]

>  <recorded_endpoint>
IC50

>  <output_unit>
nM

>  <test_result>
4140

$$$$
>  <macromolecule_sequence>
PILRGLMATPAKLNR [MPO545–559]

>  <recorded_endpoint>
IC50

>  <output_unit>
nM

>  <test_result>
8

$$$$
>  <macromolecule_sequence>
GEKLYQEARKIVGAM [MPO413–427, reference compound]

>  <recorded_endpoint>
IC50

>  <output_unit>
nM

>  <test_result>
933

$$$$
>  <macromolecule_sequence>
MPELTSMHTLLLREH [MPO409–423]

>  <recorded_endpoint>
IC50

>  <output_unit>
nM

>  <test_result>
16

$$$$
>  <macromolecule_sequence>
PVAATRTAVRAADYL [MPO105–119]

>  <recorded_endpoint>
IC50

>  <output_unit>
nM

>  <test_result>
433

$$$$
>  <macromolecule_sequence>
RKIVGAMVQIITYRD [MPO447–461]

>  <recorded_endpoint>
IC50

>  <output_unit>
nM

>  <test_result>
46

$$$$
